For each record, write down the corresponding pIC50.
// returns pIC50 (minus log10 of molar concentration), number only

Identify measured pIC50 obtained with Kinesin-like protein KIF11 (Homo sapiens, UniProt P52732) for CCNC(=O)N1N=C(c2cc(F)ccc2F)CC1(CCCCN1CC2C=CC1C2)c1ccccc1 (stereo not given) .
Sequence (P52732 whole entry): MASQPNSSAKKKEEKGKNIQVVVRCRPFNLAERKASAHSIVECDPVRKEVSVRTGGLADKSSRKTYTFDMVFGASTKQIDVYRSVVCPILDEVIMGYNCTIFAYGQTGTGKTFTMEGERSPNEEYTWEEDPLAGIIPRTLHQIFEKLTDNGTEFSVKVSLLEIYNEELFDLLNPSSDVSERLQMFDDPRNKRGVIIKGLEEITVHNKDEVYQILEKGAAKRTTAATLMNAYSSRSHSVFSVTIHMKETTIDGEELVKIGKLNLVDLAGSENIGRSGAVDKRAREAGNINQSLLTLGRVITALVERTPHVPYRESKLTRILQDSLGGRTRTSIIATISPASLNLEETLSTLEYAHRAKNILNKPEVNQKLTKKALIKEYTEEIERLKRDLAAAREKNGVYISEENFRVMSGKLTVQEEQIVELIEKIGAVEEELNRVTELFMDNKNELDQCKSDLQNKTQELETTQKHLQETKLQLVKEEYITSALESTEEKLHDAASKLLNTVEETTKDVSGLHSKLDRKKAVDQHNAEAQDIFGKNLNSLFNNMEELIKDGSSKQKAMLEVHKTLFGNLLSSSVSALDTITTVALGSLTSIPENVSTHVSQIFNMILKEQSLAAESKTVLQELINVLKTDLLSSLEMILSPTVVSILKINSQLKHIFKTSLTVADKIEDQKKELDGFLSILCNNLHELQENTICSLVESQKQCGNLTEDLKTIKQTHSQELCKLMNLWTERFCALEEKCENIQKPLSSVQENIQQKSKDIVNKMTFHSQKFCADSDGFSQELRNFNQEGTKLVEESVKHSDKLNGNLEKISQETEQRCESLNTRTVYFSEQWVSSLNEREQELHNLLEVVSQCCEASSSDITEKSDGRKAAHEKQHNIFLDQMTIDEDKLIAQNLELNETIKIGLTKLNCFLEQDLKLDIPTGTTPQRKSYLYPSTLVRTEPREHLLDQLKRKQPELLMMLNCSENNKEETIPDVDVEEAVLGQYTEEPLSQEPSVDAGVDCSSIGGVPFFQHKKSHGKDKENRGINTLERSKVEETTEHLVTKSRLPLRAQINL
6.92

Identify measured pIC50 obtained with Kinesin-like protein KIF11 (Homo sapiens, UniProt P52732) for NCCCC1(c2ccccc2)CC(c2cc(F)ccc2F)=NN1C(=O)N1CCC1 (stereo not given) .
7.26

Identify measured pIC50 obtained with Kinesin-like protein KIF11 (Homo sapiens, UniProt P52732) for CN(C)C(=O)N1N=C(c2cc(F)ccc2F)C[C@@]1(CCCN)c1ccccc1 .
8.72

Identify measured pIC50 obtained with Kinesin-like protein KIF11 (Homo sapiens, UniProt P52732) for NCCCC1(c2ccccc2)CC(c2cc(F)ccc2F)=NN1C(=O)N1CCCCC1 (stereo not given) .
7.07

Identify measured pIC50 obtained with Kinesin-like protein KIF11 (Homo sapiens, UniProt P52732) for CCNC(=O)N1N=C(c2cc(F)ccc2F)CC1(CCCCNC(=O)c1ccccn1)c1ccccc1 (stereo not given) .
6.41

Identify measured pIC50 obtained with Kinesin-like protein KIF11 (Homo sapiens, UniProt P52732) for CCNC(=O)N1N=C(c2cc(F)ccc2F)CC1(CCCO)c1ccccc1 (stereo not given) .
6.13

Identify measured pIC50 obtained with Kinesin-like protein KIF11 (Homo sapiens, UniProt P52732) for CNC(=O)N1N=C(c2cc(F)ccc2F)CC1(CO)c1ccccc1 (stereo not given) .
6.04

Identify measured pIC50 obtained with Kinesin-like protein KIF11 (Homo sapiens, UniProt P52732) for CCNC(=O)N1N=C(c2cc(F)ccc2F)CC1(CCCCNC(=O)c1cnc[nH]1)c1ccccc1 (stereo not given) .
6.16

Identify measured pIC50 obtained with Kinesin-like protein KIF11 (Homo sapiens, UniProt P52732) for CCNC(=O)N1N=C(c2cc(F)ccc2F)CC1(CCO)c1ccccc1 (stereo not given) .
6.22

Identify measured pIC50 obtained with Kinesin-like protein KIF11 (Homo sapiens, UniProt P52732) for CCNC(=O)N1N=C(c2cc(F)ccc2F)CC1(CCCCN)c1ccccc1 (stereo not given) .
7.17

---

Experiment: Clearance in mongrel dog at 0.25 mg/kg, iv
Type: ADME, organism-based, Canis lupus familiaris
Design: dose 0.25 mg/kg, route intravenous
Details: in vivo
For each record, write down the corresponding clearance.

Consider the molecule CC(=O)N1N=C(c2cc(F)ccc2F)C[C@H]1c1cccc(O)c1 . State its measured clearance.
22.1 mL/min/kg

Consider the molecule CN(C)C(=O)N1N=C(c2cc(F)ccc2F)C[C@@]1(CCCN)c1ccccc1 . State its measured clearance.
14.5 mL/min/kg

---

Assay: Solubility in citrate at pH 4.0
Assay type: physicochemical
Attribute Measured: solubility

Consider the compound CN(C)C(=O)N1N=C(c2cc(F)ccc2F)C[C@@]1(CCCN)c1ccccc1 . State its measured solubility.
> 12 mg/mL

---

Assay: Half life in mongrel dog at 0.25 mg/kg, iv
Assay type: ADME, organism-based, Canis lupus familiaris
Design: dose 0.25 mg/kg, route intravenous
Conditions: in vivo
For each record, write down the corresponding half-life.

Consider the compound CC(=O)N1N=C(c2cc(F)ccc2F)C[C@H]1c1cccc(O)c1 . State its measured half-life.
1 h

Consider the compound CN(C)C(=O)N1N=C(c2cc(F)ccc2F)C[C@@]1(CCCN)c1ccccc1 . State its measured half-life.
14.7 h
